- target: Adrenergic receptor alpha-2 (Homo sapiens, UniProt P08913+P18825+P18089)
- test: Antagonist activity at adrenergic alpha 2 receptor in human brain membrane assessed as inhibition of UK14304-induced stimulation of [35S]GTPgammaS binding by liquid scintillation spectroscopy (reference value: 1.77 +/- […])
- Assay type: functional, cell membranes
metric: EC50 (µM)
Numbers only, in µM.

The cases that follow already have their EC50 on record.
compound | target | value_reported
CCCNC(=N)Nc1ccc(Cc2ccc(NC3=NCCN3)nc2)cn1.Cl.Cl | Adrenergic receptor alpha-2 (Homo sapiens, UniProt P08913+P18825+P18089) | 10.2
Cl.Cl.N=C(N)Nc1ccc(Cc2ccc(NC3=NCCN3)cc2)cn1 | Adrenergic receptor alpha-2 (Homo sapiens, UniProt P08913+P18825+P18089) | 39.9
Cl.Cl.N=C(NCc1ccco1)Nc1ccc(Cc2ccc(NC3=NCCN3)cc2)cn1 | Adrenergic receptor alpha-2 (Homo sapiens, UniProt P08913+P18825+P18089) | 52.3

Give one value of EC50 per listed compound.
1. CCCNC(=N)Nc1ccc(Cc2ccc(NC3=NCCN3)nc2)cc1.Cl.Cl
2. COC1(C2=NCCN2)COc2ccccc2O1 (centres undefined)
3. Cl.Cl.N=C(NCc1ccco1)Nc1ccc(Cc2ccc(NC3=NCCN3)cc2)cc1
4. Cl.Cl.N=C(N)Nc1ccc(Cc2ccc(N=C3NCCN3)cc2)cc1
5. CCCNC(=N)Nc1ccc(Cc2ccc(NC3=NCCN3)cc2)cn1.Cl.Cl
6. CCCNC(=N)Nc1ccc(Cc2ccc(NC3=NCCN3)cc2)cc1.Cl.Cl

1: 4.14; 2: 87.2; 3: 11.6; 4: 20.2; 5: 30.8; 6: 30

----------
- target: Adrenergic receptor alpha-2 (Homo sapiens, UniProt P08913+P18825+P18089)
- Sequence (P08913 whole entry): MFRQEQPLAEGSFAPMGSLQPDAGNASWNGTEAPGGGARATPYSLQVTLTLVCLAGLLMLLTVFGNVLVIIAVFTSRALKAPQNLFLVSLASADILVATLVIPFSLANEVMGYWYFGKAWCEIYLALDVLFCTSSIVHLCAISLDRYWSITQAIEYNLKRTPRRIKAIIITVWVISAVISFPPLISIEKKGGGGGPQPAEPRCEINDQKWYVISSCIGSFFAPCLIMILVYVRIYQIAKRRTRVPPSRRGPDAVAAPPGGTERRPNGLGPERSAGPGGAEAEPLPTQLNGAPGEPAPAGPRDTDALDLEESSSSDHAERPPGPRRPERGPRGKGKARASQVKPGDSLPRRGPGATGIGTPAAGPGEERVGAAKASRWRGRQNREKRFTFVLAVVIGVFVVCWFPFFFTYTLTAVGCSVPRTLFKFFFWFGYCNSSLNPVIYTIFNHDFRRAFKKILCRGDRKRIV
- Sequence (P18825 whole entry): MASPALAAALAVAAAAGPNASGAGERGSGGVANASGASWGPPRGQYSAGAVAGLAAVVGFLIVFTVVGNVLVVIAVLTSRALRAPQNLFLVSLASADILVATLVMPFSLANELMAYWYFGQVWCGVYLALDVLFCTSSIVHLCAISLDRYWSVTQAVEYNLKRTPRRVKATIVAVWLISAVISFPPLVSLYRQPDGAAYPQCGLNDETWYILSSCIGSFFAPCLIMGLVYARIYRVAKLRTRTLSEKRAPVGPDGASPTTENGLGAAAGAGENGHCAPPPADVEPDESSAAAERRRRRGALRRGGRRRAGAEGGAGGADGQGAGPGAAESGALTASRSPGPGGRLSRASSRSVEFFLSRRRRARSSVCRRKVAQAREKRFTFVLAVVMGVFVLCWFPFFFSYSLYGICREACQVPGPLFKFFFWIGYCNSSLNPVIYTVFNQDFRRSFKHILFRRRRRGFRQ
- Sequence (P18089 whole entry): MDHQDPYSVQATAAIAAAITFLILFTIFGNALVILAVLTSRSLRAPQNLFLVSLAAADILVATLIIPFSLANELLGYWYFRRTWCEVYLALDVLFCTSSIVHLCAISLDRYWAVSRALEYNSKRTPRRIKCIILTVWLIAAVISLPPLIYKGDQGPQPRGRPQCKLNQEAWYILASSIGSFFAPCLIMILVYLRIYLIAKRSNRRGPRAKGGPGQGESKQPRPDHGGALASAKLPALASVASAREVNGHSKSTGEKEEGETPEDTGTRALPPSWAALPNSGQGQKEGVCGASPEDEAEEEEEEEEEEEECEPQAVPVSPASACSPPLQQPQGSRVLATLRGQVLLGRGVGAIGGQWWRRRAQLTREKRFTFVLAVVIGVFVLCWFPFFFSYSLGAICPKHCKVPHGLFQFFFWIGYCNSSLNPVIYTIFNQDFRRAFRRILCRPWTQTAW
- test: Displacement of [3H]-RX821002 from adrenergic alpha 2 receptor in human brain membrane by liquid scintillation spectroscopy
- Type: cell membranes
metric: Ki

smiles_notation | Ki
N=C(N)Nc1ccc2c(c1)CCCC2 | 77.6 nM
Cl.Cl.N=C(NCc1ccco1)Nc1ccc(Cc2ccc(NC3=NCCN3)nc2)cn1 | 263 nM
CCCNC(=N)Nc1ccc(Cc2ccc(NC3=NCCN3)nc2)cn1.Cl.Cl | 89.9 nM
Cl.Cl.N=C(NCc1ccco1)Nc1ccc(Cc2ccc(NC3=NCCN3)cc2)cc1 | 1.77 nM

Dear reader, for each entry below, please note its Ki.
1. CN(C)c1ccc(/N=C(/N)NCc2ccco2)cc1
2. Cl.Cl.N=C(N)Nc1ccc(CCc2ccc(N=C3NCCN3)cc2)cc1

1: 231.8 nM; 2: 175 nM

----------
Please respond with reported Ki for every item in the list.
- target: Adrenergic receptor alpha-2 (Homo sapiens, UniProt P08913+P18825+P18089)
- test: Displacement of [3H]-RX821002 from adrenergic alpha 2 receptor in human brain membrane by liquid scintillation spectroscopy
- Assay type: cell membranes

Example entries begin here.
smiles_notation | target | value_reported
CCCNC(=N)Nc1ccc(Cc2ccc(NC(=N)NCCC)cc2)cc1.Cl.Cl | Adrenergic receptor alpha-2 (Homo sapiens, UniProt P08913+P18825+P18089) | 742 nM
Cl.Cl.N=C(NCCO)Nc1ccc(Cc2ccc(NC(=N)NCCO)cc2)cc1 | Adrenergic receptor alpha-2 (Homo sapiens, UniProt P08913+P18825+P18089) | 2485 nM
CCCNC(=N)Nc1ccc(Cc2ccc(NC3=NCCN3)cc2)cn1.Cl.Cl | Adrenergic receptor alpha-2 (Homo sapiens, UniProt P08913+P18825+P18089) | 67.6 nM
Cl.Cl.N=C(N)Nc1ccc(Cc2ccc(N=C3NCCN3)cc2)cc1 | Adrenergic receptor alpha-2 (Homo sapiens, UniProt P08913+P18825+P18089) | 12.3 nM
CCCNC(=N)Nc1ccc(Cc2ccc(NC3=NCCN3)nc2)cc1.Cl.Cl | Adrenergic receptor alpha-2 (Homo sapiens, UniProt P08913+P18825+P18089) | 120 nM

Could you tell me Ki for each of these compounds? They are listed below.
1. CCCNC(=N)Nc1ccc(CCc2ccc(NC3=NCCN3)cc2)cc1.Cl.Cl
2. CCCNC(=N)Nc1ccc(Cc2ccc(NC3=NCCN3)cc2)cc1.Cl.Cl
3. Cl.Cl.N=C(N)Nc1ccc(Cc2ccc(NC3=NCCN3)nc2)cn1
4. Cl.Cl.N=C(NCc1ccco1)Nc1ccc(Cc2ccc(NC(=N)NCc3ccco3)cc2)cc1
5. Cl.Cl.N=C(N)Nc1ccc(Cc2ccc(NC3=NCCN3)cc2)cn1
6. c1cc2c(cc1NC1=NCCN1)CCCC2

1: 1745 nM; 2: 0.82 nM; 3: 138 nM; 4: 355 nM; 5: 86.8 nM; 6: 46.8 nM

----------
Please respond with reported Emax for every item in the list.
- target: Adrenergic receptor alpha-2 (Homo sapiens) (UniProt P08913+P18825+P18089)
- test: Agonist activity at adrenergic alpha 2 receptor in human brain membrane assessed as stimulation of [35S]GTPgammaS binding at 10 uM by liquid scintillation spectroscopy relative to control
- Type: functional, cell membranes
- condition_info: filed as agonist
Numbers only, in %.

smiles_notation | metric | value_reported
Cl.Cl.N=C(NCc1ccco1)Nc1ccc(Cc2ccc(NC3=NCCN3)cc2)cn1 | Emax | 149

Give Emax for each listed item.
1. Cl.Cl.N=C(NCc1ccco1)Nc1ccc(Cc2ccc(NC3=NCCN3)cc2)cc1
2. CCCNC(=N)Nc1ccc(Cc2ccc(NC3=NCCN3)cc2)cc1.Cl.Cl

1. 168
2. 139

Reported Emax for Cl.Cl.N=C(N)Nc1ccc(Cc2ccc(N=C3NCCN3)cc2)cc1 was 126

----------
- target: Adrenergic receptor alpha-2 (Homo sapiens, UniProt P08913+P18825+P18089)
- test: Agonist activity at adrenergic alpha 2 receptor in human brain membrane assessed as stimulation of [35S]GTPgammaS binding in presence of adrenergic alpha 2 receptor antagonist RX821002 by liquid scintillation spectroscopy
- Format: functional, cell membranes
metric: EC50 (mM)
Numbers only, in mM.

Would you please look over these solved cases?
smiles_notation | units_label | EC50
Cl.Cl.N=C(N)Nc1ccc(Cc2ccc(N=C3NCCN3)cc2)cc1 | mM | 64.02
Cl.Cl.N=C(NCc1ccco1)Nc1ccc(Cc2ccc(NC3=NCCN3)cc2)cn1 | mM | 0.252
Cl.Cl.N=C(NCc1ccco1)Nc1ccc(Cc2ccc(NC3=NCCN3)cc2)cc1 | mM | 2.356

# input for lookup
Lookup result for CCCNC(=N)Nc1ccc(Cc2ccc(NC3=NCCN3)cc2)cc1.Cl.Cl ; measured EC50: 0.487
